Consider the following compounds; for each one, report its viability.
assay-notes: SK-BR-3 cell growth inhibitors, pilot screen, 24 h, human (AID 572);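 further: compound exposure lasted between 18 and 24 h rather than exactly 24 h; 100% = carrier-treated control wells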
measurement-setup: SK-BR-3 viability, CellTiter-Glo luminescence, at 10 µM, stronger effect = lower value
Active and inactive are the calls of the source.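 How the source made its calls: active means viability at or below 10% of carrier control in both of two separate runs; inconclusive means viability at or below 10% in only one of the two runs; inactive means the rest.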

Example results:
Prompt: Looking for the measured viability of CCS(=O)(=O)c1nc2ccccc2n1CC(=O)N1CCCCC1 , can you help?
Completion: 88.5% (inactive)

Prompt: Please give the measured viability for this compound: CCCC(=O)Nc1ccc(NC(=O)C2CC2)cn1
Completion: 108% (inactive)

Prompt: Entry under review: CCOc1ccc(NC(=O)CN(C)CC(=O)NC2CCCc3ccccc32)cc1OCC (stereo unspecified) . Reported viability?
Completion: 83% (inactive)

Prompt: Which viability value belongs to COc1cc2[nH]c(=O)c(C(=O)NCCCN3CCCCC3)c(O)c2cc1OC ?
Completion: 99.5% (inactive)

Below are 2 compounds. Give each one its viability.
1. c1ccc2c(Cn3ccnc3)c[nH]c2c1
2. Cn1c(-n2c(-c3ccco3)nc3ccccc3c2=O)nc2ccccc21

Completion:
1. 109% (inactive)
2. 83% (inactive)

----------
assay-notes: reducers of endogenous Her2 protein level, primary screen, SKBR3 breast tumor cells, AlphaScreen, ATP viability (AID 461);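 further: percent of carrier control wells set as 100% viability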
measurement-setup: 18-24 h, measured here: SKBR3 viability, ATP luminescence, at 10 µM
measurement-label: viability (%)
Numbers only, in %.

Example results:
Prompt: Fill blank: measured viability of the compound COc1ccccc1N1CCN(c2nc3ccccc3nc2C(C#N)C(=O)OC(C)C)CC1 (stereo unspecified) is ____.
Completion: 77

Prompt: Quick one: viability for COc1ccc(C2CC(c3ccc(Cl)cc3)Nc3nc(NC(=O)c4ccco4)nn32)cc1 (stereo unspecified) ?
Completion: 90.5

Prompt: Entry under review: CC(=O)N1CCN=C1SCc1ccc(Br)cc1 . Reported viability?
Completion: 93

Prompt: Bench note: what viability did CCCOC(=O)CSc1nc(N)c(C#N)c(CC)c1C#N show?
Completion: 99.5

Prompt: Fill in: viability of CCc1nnc(NC(=O)NCN2C(=O)C3C4C=CC(C4)C3C2=O)s1 (stereo unspecified) is ___
Completion: 123

Prompt: Find the recorded viability belonging to CCOC(=O)c1sc(=NC(=O)c2ccc(OC)c(OC)c2)n(C)c1C and report it.
Completion: 121

Look at each compound and report its viability.
1. CC(C)CCn1c(N)c(S(=O)(=O)c2cccs2)c2nc3ccccc3nc21
2. CCn1c(C(=O)N2CCCC(C(=O)NCCCc3ccccc3)C2)cc2sccc21 (stereo unspecified)
3. CCC(C)(C)NC(=O)C(OC(=O)c1ccco1)c1ccccc1OC (stereo unspecified)
4. CCOC(=O)/N=C(/NC(=O)Nc1ccc(C(=O)OCC)cc1)OC

Completion:
1: 171; 2: 102; 3: 99; 4: 99.5

Prompt: Need viability, item CCc1nnc(NC(=O)c2ccc(S(=O)(=O)NC3CCCCC3)cc2)s1
Completion: 86.5

----------
assay-notes: reducers of endogenous Her2 protein level, primary screen, SKBR3 breast tumor cells, AlphaScreen, ATP viability (AID 461);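 further: percent of carrier control wells set as 100% viability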
measurement-setup: 18-24 h, measured here: SKBR3 viability, ATP luminescence, at 10 µM
measurement-label: viability
Answer with the value and then the unit.

Use the examples below as a reference point.
Prompt: State the recorded viability for this entry: COc1cc(C(=O)N2CCN(C(=O)CC(C)C)CC2)cc(OC)c1OC
Completion: 93.5%

Prompt: Sample O=C(Nc1c(-c2ccccc2)nc2ccccn12)c1ccco1 — what was its viability?
Completion: 95%

Prompt: Query: viability; subject: Cc1cccc(C)c1NC(=O)N1CCN(C2CCCCC2)CC1
Completion: 111%

Prompt: I would be grateful if you could share the reported viability for Cn1cc(NC(=O)c2cc(NC(=O)c3cc(NC=O)cn3C)cn2C)cc1C(=O)NCCC(=N)N .
Completion: 96%

Prompt: Given Cc1csc2ncc(C(=O)N3CCc4ccccc43)c(=O)n12 , state its recorded viability.
Completion: 95.5%

Prompt: Returns the measured viability for the input molecule. Input: CC(=O)Nc1ccc(OC(=O)c2cccnc2)cc1
Completion: 111%

Prompt: Which value of viability has been reported for COCCN(C(=O)CCC(=O)Nc1ccccn1)C(C(=O)NC1CCCC1)c1ccc(OC)cc1 (centres undefined) in the records?
Completion: 106%

Prompt: // viability lookup, key: CN(C)C(=O)N1CCCC(C(=O)NCc2ccccc2)C1 (centres undefined)
Completion: 89%

Prompt: // returns reported viability for input COc1ccc(C(=O)NCc2nnc(SCC(=O)Nc3cc(C)cc(C)c3)o2)cc1OC
Completion: 89.5%

Prompt: Fill in: viability of O=C(c1ccc(S(=O)(=O)N2CCOCC2)cc1)N(c1ccc(F)cc1)C1C=CS(=O)(=O)C1 (centres undefined) is ___
Completion: 97.5%

For each of the items listed, what is its viability?
1. Cc1cc(=O)oc2cc(Oc3ncccn3)ccc12
2. COc1ccc(NC(=O)CSc2nnc(-c3ccccc3C)n2C)cc1
3. c1ccc(OCCCn2nnc(-c3cccnc3)n2)cc1
4. CCC(=O)O[C@]1(C(=O)CCl)[C@@H](C)C[C@H]2[C@@H]3CCC4=CC(=O)C=C[C@]4(C)[C@@]3(F)[C@@H](O)C[C@@]21C
5. Cc1cnc(C(=O)Nc2ccc(N3CCOCC3)cc2)cn1
6. CCOC(=O)c1cc2c(=O)n3cccc(C)c3nc2n(Cc2ccco2)c1=NC(=O)c1cccnc1

Completion:
1: 98%; 2: 96.5%; 3: 110%; 4: 122%; 5: 95%; 6: 92.5%
